test system: DU-145 prostate; assay: NCI tumour cell line growth inhibition, 48 h
Where a SMILES comes first, the peptide text is derived from it. [ ]: non-standard residue; d: D form. The star is where a group is joined. Bn2Val = CC(C)[C@@H](C(=O)*)N(Cc1ccccc1)Cc1ccccc1; NH(4-F-benzyl) = Fc1ccc(CN*)cc1; NMeV = CN[C@H](C(=O)O)C(C)C; dNMeA = CN[C@H](C)C(=O)O
Measurement Type: TGI

// solved cases for TGI follow
Molecule	TGI
CCOC(=O)c1ccc2c(c1)c1c(C)c3cnccc3c(C)c1n2C	0.718 µM
CC(C)[C@H](NC(=O)[C@H](C(C)C)N(Cc1ccccc1)Cc1ccccc1)C(=O)N(C)[C@H](C(=O)N1CCC[C@H]1C(=O)N(C)[C@H](C)C(=O)NCc1ccc(F)cc1)C(C)C (Bn2Val-V[NMeV]P[dNMeA]-{NH(4-F-benzyl)})	> 100 µM

# value of TGI, DU-145 prostate, item CC(C)Sc1nncc(/C(N)=N/O)n1 = > 100 µM

# value of TGI, DU-145 prostate, item N#Cc1c(O)c(C=Nc2ccc(Cl)cc2)c(=O)n2c1[nH]c1ccccc12 = > 100 µM

# value of TGI, DU-145 prostate, item COC(=O)/C(=C(\C)NC(C)=O)c1c(C(=O)OC)[nH]c2ccccc12 = > 100 µM

# value of TGI, DU-145 prostate, item COc1cc(Nc2nc3c(N)cc(C(F)(F)F)cc3nc2-c2ccccc2)cc(OC)c1OC = > 100 µM

# value of TGI, DU-145 prostate, item COc1ccc(/C(COc2ccc3c(c2)oc(=O)c2cc(OC)ccc23)=N/O)cc1 = > 100 µM

# value of TGI, DU-145 prostate, item COc1ccc(/C=C/C(=O)c2ccc(NC(=O)CSc3nnc(-c4ccc(OC)c(OC)c4)n3-c3ccccc3)cc2)cc1 = 10.8 µM

* * *

Reported TGI values follow for various compounds
system: MOLT-4 leukemia; assay: NCI tumour cell line growth inhibition, 48 h

The recorded TGI for entry O=C1OC(c2ccc(O)c(F)c2)(c2ccc(O)c(F)c2)c2cccc3cccc1c23 equals > 25 µM

The recorded TGI for entry O=C1OC(c2cccc(C(F)(F)F)c2)(c2cccc(C(F)(F)F)c2)c2ccc3ccccc3c21 equals > 100 µM

The recorded TGI for entry CC(C)Sc1nncc(/C(N)=N/O)n1 equals > 100 µM

The recorded TGI for entry Cn1cc(C2=C(c3cn(C)c4ccc(OCc5ccccc5)cc34)C(=O)NC2=O)c2ccccc21 equals > 25 µM

* * *

tested on: SF-295 CNS
Measurement Type: GI50

Compound	Measurement Type	Result
CCC[CH2][Sn]1([CH2]CCC)[O]CC(c2ccccn2)C[O]1	GI50	20300 nM
COC(=O)c1ccc2[nH]c(O)c(C(=Nc3ccc(N(C)C(=O)CN4CCN(C)CC4)cc3)c3ccc(OC)cc3)c2c1	GI50	1250 nM
C=CCSSC1N=CNc2nc[nH]c21 (stereo not given)	GI50	2610 nM
COc1cccc2c(Nc3ccc(C(=O)O)cc3)cc(-c3ccccc3)nc12	GI50	> 100000 nM

Shift focus to the following entry.
# value of GI50, SF-295 CNS, item CCOC(=O)c1ccc2c(c1)c1c(C)c3cnccc3c(C)c1n2C = 128 nM

* * *

Here's what we have: GI50 numbers for KM12 colon.

Compound	Measurement Type	Result
Cc1nc2ccccn2c1NC(=O)NNC(=S)Nc1ccc(Cl)cc1	GI50	> 100 µM
CCSc1nc2[nH]c(=S)[nH]c(=S)c2c(-c2ccc(OC)c(OC)c2)c1C#N	GI50	21.9 µM
O=C(O)CN1CCN(CC(=O)O)CCN(CC(=O)O)CC1	GI50	5450 µM

# value of GI50, KM12 colon, item Clc1ccc(-c2ccc(CNCC3CCNCC3)o2)c(-c2ccccc2)c1 = 1.79 µM

# value of GI50, KM12 colon, item CC(=O)N1CCN([C@H]2CCC[C@@H](NC(=O)c3cc4c(F)ccc(C)c4[nH]3)C2)CC1 = 44.3 µM

# value of GI50, KM12 colon, item Cc1ccc(-c2c3c(nn2-c2ccc(S(=O)(=O)NC(=O)Nc4ccccc4)cc2)-c2ccccc2C3)cc1 = 18 µM

# value of GI50, KM12 colon, item C=C(CN1CCc2ccccc2C1)c1ccc(CCC(=O)Nc2ccccc2N)cc1 = 21.9 µM

# value of GI50, KM12 colon, item CC[C@H](Nc1cc(C)nc(N)n1)c1nc2cccc(NCc3ccc(C(=O)NO)cc3)c2c(=O)n1-c1ccccc1 = 1.69 µM

# value of GI50, KM12 colon, item Cc1ccc2c(c1)c(C1=C(c3cn(C)c4ccccc34)C(=O)NC1=O)cn2C = 1.92 µM

# value of GI50, KM12 colon, item COc1ccc(C2C(C#N)=C(N)Oc3c2sc2c(C)cccc32)cc1 (stereo not given) = 0.46 µM

* * *

Reported TGI values follow for various compounds
test system: HCT-116 colon; assay: NCI tumour cell line growth inhibition, 48 h
A number alone suffices; assume µM.

// solved cases for TGI follow
Compound	Measurement Type	Result
CCCCCCC[CH2][Sn]([Cl])([Cl])[CH2]CCCCCCC	TGI	15.3
O=C1CC(c2ccccc2Cl)C2(C(=O)NC(=S)NC2=O)C(c2ccccc2Cl)C1 (centres undefined)	TGI	41
CC(C)(C)OCC1NC(=O)[C@@H]2Cc3c([nH]c4ccccc34)C(C3CCCCC3)N2C1=O (some centres undefined)	TGI	30.5

Shift focus to the following entry.
The recorded TGI for entry Cc1ccc2cc3c(N)c4c(C)ccc(C)c4nc3nc2c1 equals 3.27

* * *

system: MOLT-4 leukemia; assay: NCI tumour cell line growth inhibition, 48 h
Reported TGI values follow for various compounds
A number alone suffices; assume µM.

Smiles Input	Assay Target	Result
CCCCc1[nH]ccc2c(C)c3nc4ccccc4c3cc12	MOLT-4 leukemia	4.72
COc1cc2c3c(c1O)N=NC=3CCN=2	MOLT-4 leukemia	50.4
Cc1ccc2cc3c(N)c4c(C)ccc(C)c4nc3nc2c1	MOLT-4 leukemia	21.7
Cc1ccc2c(c1)c(C1=C(c3cn(C)c4ccccc34)C(=O)NC1=O)cn2C	MOLT-4 leukemia	13.9
ClCc1nn(-c2ccccc2)c(CCl)c1CCl	MOLT-4 leukemia	6.76

# value of TGI, MOLT-4 leukemia, item COC(=O)c1ccc2[nH]c(O)c(C(=Nc3ccc(N(C)C(=O)CN4CCN(C)CC4)cc3)c3ccc(OC)cc3)c2c1 = 3.62

* * *

Reported TGI values follow for various compounds
test system: HOP-62 NSCLC; assay: NCI tumour cell line growth inhibition, 48 h

Compound	Assay Target	Result
C/C(=N/NC(=S)N1CCCCC1)c1cccc(/C(C)=N\NC(=S)N2CCCCC2)n1	HOP-62 NSCLC	15.9 µM

The recorded TGI for entry COc1ccc2c(c1)SC1=NNC(Cl)C(=O)N12 (stereo unspecified) equals > 100 µM

The recorded TGI for entry CCOC(=O)c1ccc2c(c1)c1c(C)c3cnccc3c(C)c1n2C equals 1.07 µM

The recorded TGI for entry Nc1ccc(N)c2c1C(=O)c1ccccc1C2=O equals > 100 µM

The recorded TGI for entry N#Cc1nnc2ccccc2c1N equals > 100 µM

The recorded TGI for entry N#CC(C#N)=c1ccc(=C2N3CCCC3CN2C23CC4CC(CC(C4)C2)C3)cc1 (stereo unspecified) equals > 100 µM

The recorded TGI for entry COc1ccc(-c2nnc(-c3nsc4ccccc34)o2)cc1 equals > 100 µM

The recorded TGI for entry C[C@]12CC[C@H](O)CC1=CC[C@@H]1C2CC[C@]2(C)NC(=O)C(C#N)CC12 (stereo partly specified) equals > 100 µM

The recorded TGI for entry COC1(C)OC[C@@]2(C)OC(C)C1(C)C2O[Si](C(C)C)(C(C)C)C(C)C (stereo partly specified) equals > 100 µM

The recorded TGI for entry CC(=O)OC1(C)C(=O)OC/C2=C/CN(C)CCC(OC(=O)C(O)(C(C)Cl)CC1C)C2=O (stereo unspecified) equals > 100 µM

The recorded TGI for entry CC(=O)NCCC1CN(C(=O)/C=C\I)c2ccccc21 (stereo unspecified) equals 23.3 µM

* * *

tested on: UACC-257 melanoma
Measurement Type: GI50

Compound	Assay Target	GI50
COc1ccc(/C=C/C(=O)c2ccc(NC(=O)CSc3nnc(-c4ccc(OC)c(OC)c4)n3-c3ccccc3)cc2)cc1	UACC-257 melanoma	12 µM
C=C1C(=O)c2sccc2C(c2ccc(OC)c(OC)c2)C1COC(C)=O (stereo unspecified)	UACC-257 melanoma	1.93 µM
Cc1cc2nc3c4cc(C=O)ccc4n(CCN(C)C)c3nc2cc1C	UACC-257 melanoma	1.96 µM
C=CCSSC1N=CNc2nc[nH]c21 (stereo unspecified)	UACC-257 melanoma	5.34 µM
O=C1C=C(Nc2ccc([N+](=O)[O-])cc2)c2ccccc2C1=O	UACC-257 melanoma	3.14 µM

Shift focus to the following entry.
# value of GI50, UACC-257 melanoma, item COc1ccc(/C(COc2ccc3c(c2)oc(=O)c2cc(OC)ccc23)=N/O)cc1 = 24.8 µM

Where do the numbers come from? From PubChem BioAssay (NCI).
